These measurements were taken from paper PMC6328172.

biological target: human 5-HT2C receptor (Homo sapiens); construct: expressed in transfected cells; host or cells: HeLa (HeLa-5-HT2C cell line); test: Competition binding to the human 5-HT2C receptor ([3H]mesulergine, HeLa-5-HT2C membranes); conditions: human receptor, [3H]mesulergine displacement; no unit in the table, nM; read-out: 5-HT2C Ki (in parentheses) (converted)
1 if Ki is below 300 nM. -1 if not; exact matches included in -1.

Check if Ki falls below 300 nM for COc1cccc(CNCCc2c[nH]c3ccccc23)c1O .
1

Check if Ki falls below 300 nM for COc1cccc(CNCCc2c[nH]c3ccccc23)c1OC .
-1

Check if Ki falls below 300 nM for Brc1ccc(CNCCc2c[nH]c3ccccc23)cc1 .
-1

Check if Ki falls below 300 nM for COc1ccc(Br)cc1CNCCc1c[nH]c2ccccc12 .
1

Check if Ki falls below 300 nM for Cc1ccc(O)c(CNCCc2c[nH]c3ccccc23)c1 .
1

Check if Ki falls below 300 nM for COc1ccc(CNCCc2c[nH]c3ccccc23)c(OC)c1 .
1

Check if Ki falls below 300 nM for COc1ccc(OC)c(CNCCc2c[nH]c3ccccc23)c1 .
1

Check if Ki falls below 300 nM for Brc1cccc(CNCCc2c[nH]c3ccccc23)c1 .
1

Check if Ki falls below 300 nM for CCOc1ccc(CNCCc2c[nH]c3ccccc23)cc1 .
-1

Check if Ki falls below 300 nM for COc1ccc(F)cc1CNCCc1c[nH]c2ccccc12 .
1

====

Molecular target: human 5-HT2C receptor (Homo sapiens, UniProt P28335)
Construct: expressed in transfected cells; host or cells: HeLa (HeLa-5-HT2C cell line)
Sequence (P28335 33-458): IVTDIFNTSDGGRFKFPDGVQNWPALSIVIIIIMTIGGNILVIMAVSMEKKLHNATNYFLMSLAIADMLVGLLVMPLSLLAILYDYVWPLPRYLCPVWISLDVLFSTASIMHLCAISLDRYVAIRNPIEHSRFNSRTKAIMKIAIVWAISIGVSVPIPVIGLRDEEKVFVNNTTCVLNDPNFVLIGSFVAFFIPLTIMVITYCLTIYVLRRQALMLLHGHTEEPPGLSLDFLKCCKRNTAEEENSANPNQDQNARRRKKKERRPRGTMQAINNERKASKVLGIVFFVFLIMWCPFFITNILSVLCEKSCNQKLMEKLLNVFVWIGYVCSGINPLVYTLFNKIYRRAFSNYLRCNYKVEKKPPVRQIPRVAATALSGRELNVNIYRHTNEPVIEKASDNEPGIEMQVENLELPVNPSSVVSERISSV
Assay: Competition binding to the human 5-HT2C receptor ([3H]mesulergine, HeLa-5-HT2C membranes)
Settings: human receptor, [3H]mesulergine displacement; no unit in the table, nM; read-out: 5-HT2C Ki (in parentheses) (converted)
Kindly state Ki for each of the entries shown.

Requested field: Ki. Item: Oc1c(F)cccc1CNCCc1c[nH]c2ccccc12
178 nM

Requested field: Ki. Item: Oc1ccc(Br)cc1CNCCc1c[nH]c2ccccc12
724 nM

Requested field: Ki. Item: Oc1ccccc1CNCCc1c[nH]c2ccccc12
85.1 nM

Requested field: Ki. Item: COc1ccc(CNCCc2c[nH]c3ccccc23)cc1OC
1200 nM

Requested field: Ki. Item: Clc1ccc(CNCCc2c[nH]c3ccccc23)cc1
955 nM

Requested field: Ki. Item: c1ccc(CNCCc2c[nH]c3ccccc23)cc1 [Compound 1, N-Benzyl-[2-(1H-indol-3-yl)ethyl]amine]
186 nM

Requested field: Ki. Item: COc1ccc(Cl)cc1CNCCc1c[nH]c2ccccc12
1320 nM

Requested field: Ki. Item: COc1ccc2[nH]cc(CCNCc3cc(F)ccc3O)c2c1
39.8 nM

Requested field: Ki. Item: NCCc1c[nH]c2ccccc12
95.5 nM

Requested field: Ki. Item: COc1ccc(O)c(CNCCc2c[nH]c3ccc(OC)cc23)c1
40.7 nM

====

target: human 5-HT2A receptor (Homo sapiens, UniProt P28223); construct: expressed in transfected cells; host or cells: CHO (CHO-5-HT2A cell line); assay: Competition binding to the human 5-HT2A receptor ([3H]ketanserin, CHO-5-HT2A membranes); conditions: human receptor, [3H]ketanserin displacement; no unit in the table, nM; read-out: 5-HT2A Ki (in parentheses) (converted)
Sequence (P28223 whole entry): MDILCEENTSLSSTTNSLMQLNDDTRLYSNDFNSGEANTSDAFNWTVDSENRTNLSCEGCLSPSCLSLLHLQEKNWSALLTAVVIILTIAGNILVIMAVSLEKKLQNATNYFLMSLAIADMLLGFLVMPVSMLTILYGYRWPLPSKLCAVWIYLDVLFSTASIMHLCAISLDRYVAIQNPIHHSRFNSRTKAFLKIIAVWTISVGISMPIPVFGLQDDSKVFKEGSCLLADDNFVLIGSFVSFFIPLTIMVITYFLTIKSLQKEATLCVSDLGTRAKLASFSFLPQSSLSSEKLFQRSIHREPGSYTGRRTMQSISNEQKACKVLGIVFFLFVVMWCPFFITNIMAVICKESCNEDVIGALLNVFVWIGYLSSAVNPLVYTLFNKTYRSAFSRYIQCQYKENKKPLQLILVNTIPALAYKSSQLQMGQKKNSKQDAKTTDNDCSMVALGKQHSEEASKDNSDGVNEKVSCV
TRUE if Ki is below 300 nM. FALSE if not; exact matches included in FALSE.

Check if Ki falls below 300 nM for Cc1ccc(CNCCc2c[nH]c3ccccc23)cc1 .
FALSE

Check if Ki falls below 300 nM for COc1ccc(CNCCc2c[nH]c3ccccc23)cc1OC .
FALSE

Check if Ki falls below 300 nM for Fc1cccc(CNCCc2c[nH]c3ccccc23)c1 .
TRUE

Check if Ki falls below 300 nM for COc1ccc2[nH]cc(CCNCc3ccccc3OC)c2c1 .
TRUE

Check if Ki falls below 300 nM for Oc1ccccc1CNCCc1c[nH]c2ccccc12 .
TRUE

Check if Ki falls below 300 nM for Oc1cc(Br)ccc1CNCCc1c[nH]c2ccccc12 .
FALSE

Check if Ki falls below 300 nM for Brc1cccc(CNCCc2c[nH]c3ccccc23)c1 .
TRUE

Check if Ki falls below 300 nM for c1ccc(CNCCc2c[nH]c3ccccc23)cc1 [Compound 1, N-Benzyl-[2-(1H-indol-3-yl)ethyl]amine] .
TRUE

Check if Ki falls below 300 nM for COc1ccc(CNCCc2c[nH]c3ccccc23)cc1 .
FALSE

Check if Ki falls below 300 nM for COc1ccccc1CNCCc1c[nH]c2ccccc12 .
TRUE

====

Structures can show the parent of a compound that is named as a salt.
Kindly state melting point for each of the entries shown.

Requested field: melting point. Item: Oc1c(Br)cc(Br)cc1CNCCc1c[nH]c2ccccc12 (as salt: hydrochloride) [Compound 35]
183 to 184 °C

Requested field: melting point. Item: COc1ccc2[nH]cc(CCNCc3cc(F)ccc3O)c2c1 (as salt: fumarate) [Compound 43]
200 to 201 °C

Requested field: melting point. Item: COc1ccc(CNCCc2c[nH]c3ccccc23)c(OC)c1 (as salt: hydrochloride) [Compound 32]
184 to 186 °C

Requested field: melting point. Item: Oc1cc(Br)ccc1CNCCc1c[nH]c2ccccc12 (as salt: hydrochloride) [Compound 31]
192 to 194 °C

Requested field: melting point. Item: COc1ccc(OC)c(CNCCc2c[nH]c3ccccc23)c1 (as salt: hydrochloride) [Compound 29]
175 to 176 °C

Requested field: melting point. Item: Oc1c(Br)cccc1CNCCc1c[nH]c2ccccc12 (as salt: succinate) [Compound 21]
141 to 142 °C

Requested field: melting point. Item: Oc1cccc(CNCCc2c[nH]c3ccccc23)c1 (as salt: fumarate) [Compound 7]
206 to 207 °C

Requested field: melting point. Item: Oc1ccc(Br)cc1CNCCc1c[nH]c2ccccc12 (as salt: hydrochloride) [Compound 26]
188 to 189 °C

====

target: human 5-HT2C receptor (Homo sapiens); construct: expressed in transfected cells; host or cells: HeLa (HeLa-5-HT2C cell line); assay: Competition binding to the human 5-HT2C receptor ([3H]mesulergine, HeLa-5-HT2C membranes); settings: from Ki values, Table 1
Kindly state Selectivity 5-HT2C/2A (binding, in parentheses) for each of the entries shown.
Answer with a bare number; do not write a unit.

Requested field: Selectivity 5-HT2C/2A (binding, in parentheses). Item: Oc1cccc(CNCCc2c[nH]c3ccccc23)c1
2.8

Requested field: Selectivity 5-HT2C/2A (binding, in parentheses). Item: Fc1cccc(CNCCc2c[nH]c3ccccc23)c1
1.19

Requested field: Selectivity 5-HT2C/2A (binding, in parentheses). Item: COc1ccc2[nH]cc(CCNCc3ccccc3OC)c2c1
0.65

Requested field: Selectivity 5-HT2C/2A (binding, in parentheses). Item: Cc1cccc(CNCCc2c[nH]c3ccccc23)c1
0.20

Requested field: Selectivity 5-HT2C/2A (binding, in parentheses). Item: COc1ccc2[nH]cc(CCNCc3ccccc3Br)c2c1
0.18

Requested field: Selectivity 5-HT2C/2A (binding, in parentheses). Item: COc1cccc(CNCCc2c[nH]c3ccccc23)c1OC
1.37

Requested field: Selectivity 5-HT2C/2A (binding, in parentheses). Item: COc1ccc2[nH]cc(CCNCc3cc(F)ccc3O)c2c1
0.10

Requested field: Selectivity 5-HT2C/2A (binding, in parentheses). Item: Brc1ccc(CNCCc2c[nH]c3ccccc23)cc1
0.92

Requested field: Selectivity 5-HT2C/2A (binding, in parentheses). Item: Oc1cc(Br)ccc1CNCCc1c[nH]c2ccccc12
2.63

Requested field: Selectivity 5-HT2C/2A (binding, in parentheses). Item: Cc1ccc(O)c(CNCCc2c[nH]c3ccccc23)c1
2.77

Requested field: Selectivity 5-HT2C/2A (binding, in parentheses). Item: COc1ccc(CNCCc2c[nH]c3ccccc23)cc1OC
1.09

Requested field: Selectivity 5-HT2C/2A (binding, in parentheses). Item: Oc1ccc(F)cc1CNCCc1c[nH]c2ccccc12
7.15

Requested field: Selectivity 5-HT2C/2A (binding, in parentheses). Item: COc1ccccc1CNCCc1c[nH]c2ccccc12
0.39

Requested field: Selectivity 5-HT2C/2A (binding, in parentheses). Item: O=[N+]([O-])c1ccc(CNCCc2c[nH]c3ccccc23)cc1
1.85

Requested field: Selectivity 5-HT2C/2A (binding, in parentheses). Item: CCOc1ccc(CNCCc2c[nH]c3ccccc23)cc1
0.36

Requested field: Selectivity 5-HT2C/2A (binding, in parentheses). Item: Clc1ccccc1CNCCc1c[nH]c2ccccc12
0.49

Requested field: Selectivity 5-HT2C/2A (binding, in parentheses). Item: COc1ccc(Cl)cc1CNCCc1c[nH]c2ccccc12
0.74

Requested field: Selectivity 5-HT2C/2A (binding, in parentheses). Item: COc1ccc(O)c(CNCCc2c[nH]c3ccc(OC)cc23)c1
3.31

Requested field: Selectivity 5-HT2C/2A (binding, in parentheses). Item: Oc1c(F)cccc1CNCCc1c[nH]c2ccccc12
1.22

Requested field: Selectivity 5-HT2C/2A (binding, in parentheses). Item: Oc1ccc(Br)cc1CNCCc1c[nH]c2ccccc12
0.42

Requested field: Selectivity 5-HT2C/2A (binding, in parentheses). Item: COc1ccc(F)cc1CNCCc1c[nH]c2ccccc12
2.40
